Consider the following compounds; for each one, report its IC50.
- test.target: human recombinant ALK1 (GST fused to ALK1 intracellular domain [His142-Gln503]) (Homo sapiens, UniProt P37023)
- Construct: GST fused to ALK1 intracellular domain [His142-Gln503]
- Sequence (P37023 142-503): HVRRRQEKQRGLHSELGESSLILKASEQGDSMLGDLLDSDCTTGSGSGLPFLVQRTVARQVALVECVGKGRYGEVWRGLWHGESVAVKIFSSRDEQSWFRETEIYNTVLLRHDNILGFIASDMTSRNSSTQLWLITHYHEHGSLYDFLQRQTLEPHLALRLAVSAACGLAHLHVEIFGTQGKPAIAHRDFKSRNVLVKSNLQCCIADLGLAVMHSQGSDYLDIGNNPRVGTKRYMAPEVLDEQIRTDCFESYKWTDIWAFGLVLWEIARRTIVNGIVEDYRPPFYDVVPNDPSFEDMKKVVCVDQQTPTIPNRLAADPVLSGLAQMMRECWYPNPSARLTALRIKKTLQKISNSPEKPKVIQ
- experiment: ALK1-Kinase Flashplate-Assay
- assay.conditions: 0.5 μM ATP, biotinylated α-casein substrate; read-out: Assay 1 (ALK1-Kinase Flashplate-Assay IC50 class)
Counter-ions that a name gives are not always drawn.

For this compound ( COc1cc(Nc2ccn3ncc(-c4cccc(C(=O)NCCO)c4)c3n2)cc(OC)c1OC ), measured IC50 is 1000 to 10000 nM

Lab note: COc1ccc(-c2cnn3ccc(Nc4ccc(N5CCOCC5)cc4)nc23)cc1 gave IC50 of 1000 to 10000 nM

According to the records, this compound COc1cc(OC)cc(-c2cnn3ccc(Nc4ccc(N5CCOCC5)cc4)nc23)c1 displays IC50 of < 1000 nM

Note to self: IC50 recorded for Cc1ccc(S(=O)(=O)Nc2ccc(Nc3ccn4ncc(-c5ccc(C(=O)NCCN(C)C)cc5)c4n3)cc2)cc1 was 1000 to 10000 nM

In plain terms, CC(=O)c1cccc(-c2cnn3ccc(NCc4ccncc4)nc23)c1 has a documented IC50 of 1000 to 10000 nM

// COc1cc(-c2cnn3ccc(Nc4ccc(N5CCOCC5)cc4)nc23)cc(OC)c1OC : IC50 value = < 1000 nM

Noted for c1csc(-c2cnn3ccc(NC4CCNCC4)nc23)c1 [Example 495, bis TFA salt] : its IC50 reads < 1000 nM

Sample COc1cc(Nc2ccn3ncc(-c4cccc(O)c4)c3n2)cc(OC)c1OC ; IC50 observed: 1000 to 10000 nM

Lookup result for COc1ccc(-c2cnn3ccc(NCCO)nc23)cn1 ; measured IC50: 1000 to 10000 nM

For record COc1cc(Nc2ccn3ncc(-c4cccc(C(N)=O)c4)c3n2)cc(OC)c1OC the listed IC50 is 1000 to 10000 nM

Please fill in: IC50 reported for COc1cc(-c2cnn3ccc(Nc4cccc(Cl)c4)nc23)cc(OC)c1OC = < 1000 nM

Recorded result, Oc1ccc(-c2cnn3ccc(Nc4ccc(N5CCOCC5)cc4)nc23)cc1 , IC50: 1000 to 10000 nM

IC50 measured on CN(C)CCNC(=O)c1cccc(-c2cnn3ccc(Nc4ccc(O)cc4)nc23)c1 = 1000 to 10000 nM

Memo: COc1ccc(-c2cnn3ccc(NC4CCC(O)CC4)nc23)cc1OC (centres unmarked) , reported IC50: < 1000 nM

---

Hi there, I'd appreciate the recorded IC50 for every entry that follows.
- test.target: human recombinant ALK1 (GST fused to ALK1 intracellular domain [His142-Gln503]) (Homo sapiens)
- Construct: GST fused to ALK1 intracellular domain [His142-Gln503]
- experiment: ALK1-Kinase Flashplate-Assay
- assay.conditions: 0.5 μM ATP, biotinylated α-casein substrate; read-out: Assay 1 (ALK1-Kinase Flashplate-Assay IC50 class)

The recorded IC50 for entry COc1cncc(-c2cnn3ccc(NC4CCC(O)CC4)nc23)c1 (stereo not shown) equals 1000 to 10000 nM

Measured IC50, OCCNc1ccn2ncc(-c3cccc(OC(F)(F)F)c3)c2n1 : 1000 to 10000 nM

Recorded IC50 (compound CS(=O)(=O)Nc1cccc(-c2cnn3ccc(Nc4ccccc4)nc23)c1 ): < 1000 nM

The compound COc1cc(-c2cnn3ccc(NCCO)nc23)ccc1O showed IC50 equal to < 1000 nM

// data source = patent US20080039455A1
